pIC50: −log10 of the molar value.
Here we gather pIC50 data for PIP4K2B (Homo sapiens, UniProt P78356) reported by several publications.

Example cases with answers are listed next.
Compound	System	Assay Readout	Measured Value
Cn1ncc2c(-c3cncc(-c4ccc(N5CCCC5=O)cc4)c3)cn(CC3CCOCC3)c(=O)c21	PIP4K2B (Homo sapiens, UniProt P78356)	pIC50	6.00 to 7.00
COC(=O)c1cc2c(-c3cncc(-c4ccc(N5CCCC5=O)cc4C)c3)ccnc2[nH]1	PIP4K2B (Homo sapiens, UniProt P78356)	pIC50	7.00 to 8.00
CC1Oc2cc(N3CCCC3=O)ccc2-c2cnc(Nc3cncc(NC(=O)c4cc5ccccc5[nH]4)c3)cc21 (stereo not drawn)	PIP4K2B (Homo sapiens, UniProt P78356)	pIC50	7.00 to 8.00
CC(C)OC(=O)c1cc2c(-c3cncc(-c4ccc(N5CCCC5=O)cc4)c3)ccnc2o1	PIP4K2B (Homo sapiens, UniProt P78356)	pIC50	7.00 to 8.00
CC(C)Cn1cnnc1-c1ccc(-c2cncc(-c3ccnc4c3cc3n4CCN(c4ccccn4)C3=O)c2)cc1	PIP4K2B (Homo sapiens, UniProt P78356)	pIC50	8.00 to 9.00

Lab note: need pIC50 for `COc1ncc(Nc2ccc(-c3ccc(N4CCCC4=O)cc3)cn2)cc1NS(C)(=O)=O` on PIP4K2B (Homo sapiens, UniProt P78356), anyone have it?
7.00 to 8.00

Lab note: need pIC50 for CC1Oc2cc(N3CCCC3=O)ccc2-c2cnc(Nc3cncc(NC(=O)c4ccc5c(c4)COB5O)c3)cc21 (stereo not drawn) on PIP4K2B (Homo sapiens, UniProt P78356), anyone have it?
7.00 to 8.00

Lab note: need pIC50 for `CN(C)C(=O)c1ccc(-c2cc(-c3ccnc4[nH]c(C(=O)NC5COC5)cc34)cnc2N)nc1` on PIP4K2B (Homo sapiens, UniProt P78356), anyone have it?
7.00 to 8.00

Lab note: need pIC50 for CC1Oc2cc(N3CCCC3=O)ccc2-c2cnc(Nc3cncc(NC(=O)c4ccc5cc[nH]c5c4)c3)cc21 (stereo not drawn) on PIP4K2B (Homo sapiens, UniProt P78356), anyone have it?
7.00 to 8.00

Lab note: need pIC50 for `CCc1c(C)[nH]c2c(-c3cncc(-c4ccc(N5CCCC5=O)cc4)c3)cnn2c1=O` on PIP4K2B (Homo sapiens, UniProt P78356), anyone have it?
6.00 to 7.00

Lab note: need pIC50 for `O=C([C@H]1CCOC1)N1CCN(c2cncc(Nc3ccc(-c4ccc(N5CCCC5=O)cc4)cn3)c2)CC1` on PIP4K2B (Homo sapiens, UniProt P78356), anyone have it?
7.00 to 8.00

Lab note: need pIC50 for `CN(C)C/C=C/C(=O)Nc1cccc(C(=O)NCc2ccc(Nc3ccc(-c4ccc(C(=O)N(C)C)cc4)cn3)cn2)c1` on PIP4K2B (Homo sapiens, UniProt P78356), anyone have it?
7.00 to 8.00

Lab note: need pIC50 for `CCN(CC)CCNC(=O)N1CCOc2ncc(Nc3ncc4c(n3)C(C)(C)Oc3cc(N5CCCC5=O)ccc3-4)cc21` on PIP4K2B (Homo sapiens, UniProt P78356), anyone have it?
7.00 to 8.00

Lab note: need pIC50 for `O=C1CCCN1c1ccc(-c2ccc(Nc3cnc4c(c3)N3C(=O)CC[C@H]3CO4)nc2)cc1` on PIP4K2B (Homo sapiens, UniProt P78356), anyone have it?
7.00 to 8.00

Lab note: need pIC50 for `CN(C)C(=O)c1cnc2occ(-c3cncc(-c4ccc(N5CCCC5=O)cc4)c3)c2c1` on PIP4K2B (Homo sapiens, UniProt P78356), anyone have it?
6.00 to 7.00
